Recorded fold change by entry
- System: haloacid dehalogenase-like hydrolase (LmjF.28.1370)
- assay_text: Multitargeted bead mixture competition
- Type: binding, Leishmania
- experimental_conditions: protein LMJF.28.1370 HALOACID DEHALOGENASE-LIKE HYDROLASE, PUTATIVE; vehicle control = 1

Take a look at these entries with their results.
NCCCNc1ccc(C(=O)NC(CCC(=O)O)C(=O)O)cc1 (stereo not shown) : 1.02
Nc1nc2cccc(-c3ccccc3)c2n1Cc1ccc(Cl)c(Cl)c1 : 1.07
Nc1nc2c(c(=O)[nH]1)N(C=O)C(CNc1ccc(C(=O)N[C@@H](CCC(=O)O)C(=O)O)cc1)CN2 (stereo partly shown) : 1.05
Nc1nc2[nH]cc(CCc3ccc(C(=O)N[C@@H](CCC(=O)O)C(=O)O)cc3)c2c(=O)[nH]1 : 0.93

Prompt: Form field: reported fold change of CCCCCCOc1ccc(Cc2cnc(N)nc2N)cc1
Completion: 0.13

Prompt: Form field: reported fold change of CCCCCCOc1cccc(Cc2cnc(N)nc2N)c1
Completion: 1

Prompt: Form field: reported fold change of NCCOCCOCC(=O)Nc1nc2ncc(CNc3ccc(C(=O)NC(CCC(=O)O)C(=O)O)cc3)nc2c(=O)[nH]1 (stereo not shown)
Completion: 0.89

###

- test_system: DHFR-TS (Leishmania major, UniProt P07382)
- Sequence (P07382 whole entry): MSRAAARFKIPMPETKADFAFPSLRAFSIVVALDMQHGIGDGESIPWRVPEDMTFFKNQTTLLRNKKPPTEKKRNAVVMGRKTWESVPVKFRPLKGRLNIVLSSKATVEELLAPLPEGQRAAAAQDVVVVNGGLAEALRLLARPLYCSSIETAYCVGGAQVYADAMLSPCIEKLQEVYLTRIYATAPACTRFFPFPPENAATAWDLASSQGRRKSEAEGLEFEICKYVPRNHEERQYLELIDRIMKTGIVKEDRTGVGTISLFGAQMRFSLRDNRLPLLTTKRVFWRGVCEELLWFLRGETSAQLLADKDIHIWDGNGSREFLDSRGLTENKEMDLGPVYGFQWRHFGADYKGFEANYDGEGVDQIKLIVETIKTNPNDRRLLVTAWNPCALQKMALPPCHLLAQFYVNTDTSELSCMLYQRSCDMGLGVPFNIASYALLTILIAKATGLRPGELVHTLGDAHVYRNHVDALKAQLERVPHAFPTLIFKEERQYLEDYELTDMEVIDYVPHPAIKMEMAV
- assay_text: biochemical
- experimental_conditions: competing free ligand 100 μM; bead = immobilized compound of the row; L. major lysate; read-out: % Inhibition of protein binding to bead, DHFR-TS, L. major
Recorded inhibition at 100 µM by entry

Take a look at these entries with their results.
Nc1nc(=O)c2nc(CNc3ccc(C(=O)N[C@@H](CCC(=O)O)C(=O)O)cc3)cnc2[nH]1 [Folic acid] : 85%
CCCCCCOc1ccc(Cc2cnc(N)nc2N)cc1 [compound 1] : < 50%
Nc1nc2cccc(-c3ccccc3)c2n1Cc1ccc(Cl)c(Cl)c1 [compound 3] : < 50%
Cc1ccc2nc(N)[nH]c(=O)c2c1Sc1ccncc1 [NTX, nolatrexed] : < 50%

Let's switch to this compound now.
Prompt: Form field: reported inhibition at 100 µM of CCCCCCOc1cccc(Cc2cnc(N)nc2N)c1 [compound 2]
Completion: < 50%

###

- test_system: HeLa cell extract proteins (Homo sapiens, UniProt Q13315)
- Construct: endogenous in cells; host or cells: HeLa cell extract
- Sequence (Q13315 whole entry): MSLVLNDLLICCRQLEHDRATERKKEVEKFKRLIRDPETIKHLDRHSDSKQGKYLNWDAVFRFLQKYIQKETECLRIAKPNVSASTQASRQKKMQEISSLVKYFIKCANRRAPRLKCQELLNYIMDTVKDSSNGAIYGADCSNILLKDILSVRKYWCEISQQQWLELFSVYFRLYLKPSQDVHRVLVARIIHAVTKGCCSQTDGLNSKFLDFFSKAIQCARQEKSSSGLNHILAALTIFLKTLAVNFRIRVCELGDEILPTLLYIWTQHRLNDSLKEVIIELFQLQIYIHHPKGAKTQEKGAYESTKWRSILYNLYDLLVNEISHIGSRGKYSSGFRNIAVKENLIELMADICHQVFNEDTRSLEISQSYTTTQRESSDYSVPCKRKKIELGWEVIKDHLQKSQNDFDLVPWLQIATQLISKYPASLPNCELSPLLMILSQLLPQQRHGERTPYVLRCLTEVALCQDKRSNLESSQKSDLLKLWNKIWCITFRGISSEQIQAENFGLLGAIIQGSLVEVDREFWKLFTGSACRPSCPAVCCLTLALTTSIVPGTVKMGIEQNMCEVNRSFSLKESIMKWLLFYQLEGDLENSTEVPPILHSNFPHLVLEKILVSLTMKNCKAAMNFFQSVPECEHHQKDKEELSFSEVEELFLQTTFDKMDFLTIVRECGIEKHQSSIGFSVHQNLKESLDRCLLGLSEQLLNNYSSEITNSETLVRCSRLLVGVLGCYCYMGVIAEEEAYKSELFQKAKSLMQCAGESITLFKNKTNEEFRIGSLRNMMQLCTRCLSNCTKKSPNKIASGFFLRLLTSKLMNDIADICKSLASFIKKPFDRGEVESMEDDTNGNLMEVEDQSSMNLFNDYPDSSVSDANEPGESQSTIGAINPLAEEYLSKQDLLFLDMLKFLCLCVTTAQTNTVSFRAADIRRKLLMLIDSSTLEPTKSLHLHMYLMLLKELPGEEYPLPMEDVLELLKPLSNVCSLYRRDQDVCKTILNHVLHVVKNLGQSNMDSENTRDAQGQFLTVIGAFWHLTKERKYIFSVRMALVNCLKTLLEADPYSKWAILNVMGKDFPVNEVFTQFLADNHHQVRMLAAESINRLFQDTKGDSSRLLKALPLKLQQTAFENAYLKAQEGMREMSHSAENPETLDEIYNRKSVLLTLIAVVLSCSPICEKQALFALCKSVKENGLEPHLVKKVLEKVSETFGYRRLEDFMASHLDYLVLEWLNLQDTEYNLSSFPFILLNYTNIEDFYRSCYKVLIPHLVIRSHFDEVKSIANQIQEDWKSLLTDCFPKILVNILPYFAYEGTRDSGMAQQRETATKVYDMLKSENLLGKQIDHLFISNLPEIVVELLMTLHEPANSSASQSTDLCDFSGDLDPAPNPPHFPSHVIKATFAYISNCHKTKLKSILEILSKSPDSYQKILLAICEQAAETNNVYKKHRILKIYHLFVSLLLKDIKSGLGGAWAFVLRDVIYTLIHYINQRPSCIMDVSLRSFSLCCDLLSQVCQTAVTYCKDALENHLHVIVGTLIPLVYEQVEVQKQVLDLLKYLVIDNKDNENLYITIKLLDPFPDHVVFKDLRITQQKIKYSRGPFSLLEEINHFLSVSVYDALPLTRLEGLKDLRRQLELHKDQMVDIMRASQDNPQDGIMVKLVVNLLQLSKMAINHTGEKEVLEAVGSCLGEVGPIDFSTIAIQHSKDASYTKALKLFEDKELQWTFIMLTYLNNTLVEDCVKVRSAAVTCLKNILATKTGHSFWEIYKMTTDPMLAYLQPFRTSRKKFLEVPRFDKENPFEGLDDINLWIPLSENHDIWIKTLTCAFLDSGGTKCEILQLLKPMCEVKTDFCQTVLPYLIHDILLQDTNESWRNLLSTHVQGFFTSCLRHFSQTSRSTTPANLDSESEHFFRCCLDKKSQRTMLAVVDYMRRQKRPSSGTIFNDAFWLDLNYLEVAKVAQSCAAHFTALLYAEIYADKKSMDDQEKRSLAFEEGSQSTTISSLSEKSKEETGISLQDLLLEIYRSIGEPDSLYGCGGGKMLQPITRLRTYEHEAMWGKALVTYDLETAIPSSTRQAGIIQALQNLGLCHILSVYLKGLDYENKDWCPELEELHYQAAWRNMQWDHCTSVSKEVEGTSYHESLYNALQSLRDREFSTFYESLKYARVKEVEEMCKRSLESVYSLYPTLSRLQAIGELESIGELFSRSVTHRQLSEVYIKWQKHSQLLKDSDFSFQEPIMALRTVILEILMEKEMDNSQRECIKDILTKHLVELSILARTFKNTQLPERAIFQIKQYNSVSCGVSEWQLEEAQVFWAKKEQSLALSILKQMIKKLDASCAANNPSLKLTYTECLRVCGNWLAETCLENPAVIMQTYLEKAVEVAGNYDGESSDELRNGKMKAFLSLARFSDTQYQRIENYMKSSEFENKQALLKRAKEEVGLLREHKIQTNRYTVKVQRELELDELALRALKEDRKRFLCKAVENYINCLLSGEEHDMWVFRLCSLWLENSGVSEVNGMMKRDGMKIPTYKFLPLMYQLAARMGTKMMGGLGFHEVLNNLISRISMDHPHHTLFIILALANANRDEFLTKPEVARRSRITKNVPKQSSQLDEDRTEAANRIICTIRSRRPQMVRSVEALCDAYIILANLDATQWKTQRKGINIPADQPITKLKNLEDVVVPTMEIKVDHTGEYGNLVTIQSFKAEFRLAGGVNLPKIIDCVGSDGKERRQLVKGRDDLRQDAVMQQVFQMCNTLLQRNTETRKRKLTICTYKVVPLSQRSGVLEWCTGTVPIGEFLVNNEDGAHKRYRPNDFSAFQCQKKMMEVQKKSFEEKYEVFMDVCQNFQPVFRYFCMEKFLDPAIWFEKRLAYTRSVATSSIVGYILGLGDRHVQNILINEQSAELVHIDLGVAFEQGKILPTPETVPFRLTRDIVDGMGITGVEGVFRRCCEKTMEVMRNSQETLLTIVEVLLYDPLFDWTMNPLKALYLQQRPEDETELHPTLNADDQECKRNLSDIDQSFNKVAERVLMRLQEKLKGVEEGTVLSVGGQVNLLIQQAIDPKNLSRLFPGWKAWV
- Assay type: binding
- experimental_conditions: HeLa; protein ATM
property_name: fold changes relative to vehicle control
Answer field: number only, no words.

Prompt: Form field: reported fold changes relative to vehicle control of CCCCCCOc1cccc(Cc2cnc(N)nc2N)c1
Completion: 1.01

Prompt: Form field: reported fold changes relative to vehicle control of Nc1nc2cccc(-c3ccccc3)c2n1Cc1ccc(Cl)c(Cl)c1
Completion: 1.14

Prompt: Form field: reported fold changes relative to vehicle control of NCCCNc1ccc(C(=O)NC(CCC(=O)O)C(=O)O)cc1 (stereo not drawn)
Completion: 1.09

Prompt: Form field: reported fold changes relative to vehicle control of NCCOCCOCC(=O)Nc1nc2ncc(CNc3ccc(C(=O)NC(CCC(=O)O)C(=O)O)cc3)nc2c(=O)[nH]1 (stereo not drawn)
Completion: 1.1

Prompt: Form field: reported fold changes relative to vehicle control of CCCCCCOc1ccc(Cc2cnc(N)nc2N)cc1
Completion: 1.03

Prompt: Form field: reported fold changes relative to vehicle control of Nc1nc2c(c(=O)[nH]1)N(C=O)C(CNc1ccc(C(=O)N[C@@H](CCC(=O)O)C(=O)O)cc1)CN2 (stereo partly drawn)
Completion: 0.92

###

- test_system: inosine-5′-monophosphate dehydrogenase (Tb927.10.16120) (Trypanosoma brucei brucei, UniProt P50098)
- Sequence (P50098 whole entry): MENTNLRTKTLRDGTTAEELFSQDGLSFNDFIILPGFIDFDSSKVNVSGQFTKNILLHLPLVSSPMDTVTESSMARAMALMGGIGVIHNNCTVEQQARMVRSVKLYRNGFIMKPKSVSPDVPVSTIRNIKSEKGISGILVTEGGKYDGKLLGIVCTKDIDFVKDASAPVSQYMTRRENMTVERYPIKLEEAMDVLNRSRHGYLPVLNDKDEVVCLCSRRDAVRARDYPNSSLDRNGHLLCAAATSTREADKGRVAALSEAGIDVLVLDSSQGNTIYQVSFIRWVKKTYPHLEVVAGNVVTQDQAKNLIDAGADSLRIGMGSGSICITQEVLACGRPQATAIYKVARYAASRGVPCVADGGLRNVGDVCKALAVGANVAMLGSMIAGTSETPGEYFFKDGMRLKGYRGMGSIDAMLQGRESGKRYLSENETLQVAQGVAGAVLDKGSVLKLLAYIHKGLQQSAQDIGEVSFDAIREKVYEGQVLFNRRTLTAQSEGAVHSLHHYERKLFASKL
- assay_text: Multitargeted bead mixture competition
- Type: binding, T. brucei
- experimental_conditions: protein TB927.10.16120 INOSINE-5'-MONOPHOSPHATE DEHYDROGENASE; vehicle control = 1
Recorded fold change by entry
Answer field: number only, no words.

CCCCCCOc1cccc(Cc2cnc(N)nc2N)c1 [compound 2] : 1.03

Prompt: Form field: reported fold change of NCCCNc1ccc(C(=O)NC(CCC(=O)O)C(=O)O)cc1 (stereo not shown) [compound 7]
Completion: 1.04

###

- System: SUCCINYL-COA SYNTHETASE ALPHA SUBUNIT, PUTATIVE (Tb427.03.2230)
- assay_text: Multitargeted bead mixture competition
- Assay type: binding
- experimental_conditions: free ligand 100 μM, T. brucei lysate
property_name: percentage of competition from bead binding (%)
// return numeric value only (unit: %, not printed)

Take a look at these entries with their results.
Nc1nc(O)c2c(CCc3ccccc3)c[nH]c2n1 : 51
Nc1nc2cccc(-c3ccccc3)c2n1Cc1ccc(Cl)c(Cl)c1 : 10
CN(Cc1cnc2nc(N)nc(N)c2n1)c1ccc(C(=O)N[C@@H](CCC(=O)O)C(=O)O)cc1 [MTX, methotrexate] : 18

Let's switch to this compound now.
Prompt: Form field: reported percentage of competition from bead binding of Cc1ccc2nc(N)[nH]c(=O)c2c1Sc1ccncc1
Completion: 27

###

- test_system: HeLa cell extract proteins (Homo sapiens, UniProt P55060)
- Construct: endogenous in cells; host or cells: HeLa cell extract
- Sequence (P55060 1-971): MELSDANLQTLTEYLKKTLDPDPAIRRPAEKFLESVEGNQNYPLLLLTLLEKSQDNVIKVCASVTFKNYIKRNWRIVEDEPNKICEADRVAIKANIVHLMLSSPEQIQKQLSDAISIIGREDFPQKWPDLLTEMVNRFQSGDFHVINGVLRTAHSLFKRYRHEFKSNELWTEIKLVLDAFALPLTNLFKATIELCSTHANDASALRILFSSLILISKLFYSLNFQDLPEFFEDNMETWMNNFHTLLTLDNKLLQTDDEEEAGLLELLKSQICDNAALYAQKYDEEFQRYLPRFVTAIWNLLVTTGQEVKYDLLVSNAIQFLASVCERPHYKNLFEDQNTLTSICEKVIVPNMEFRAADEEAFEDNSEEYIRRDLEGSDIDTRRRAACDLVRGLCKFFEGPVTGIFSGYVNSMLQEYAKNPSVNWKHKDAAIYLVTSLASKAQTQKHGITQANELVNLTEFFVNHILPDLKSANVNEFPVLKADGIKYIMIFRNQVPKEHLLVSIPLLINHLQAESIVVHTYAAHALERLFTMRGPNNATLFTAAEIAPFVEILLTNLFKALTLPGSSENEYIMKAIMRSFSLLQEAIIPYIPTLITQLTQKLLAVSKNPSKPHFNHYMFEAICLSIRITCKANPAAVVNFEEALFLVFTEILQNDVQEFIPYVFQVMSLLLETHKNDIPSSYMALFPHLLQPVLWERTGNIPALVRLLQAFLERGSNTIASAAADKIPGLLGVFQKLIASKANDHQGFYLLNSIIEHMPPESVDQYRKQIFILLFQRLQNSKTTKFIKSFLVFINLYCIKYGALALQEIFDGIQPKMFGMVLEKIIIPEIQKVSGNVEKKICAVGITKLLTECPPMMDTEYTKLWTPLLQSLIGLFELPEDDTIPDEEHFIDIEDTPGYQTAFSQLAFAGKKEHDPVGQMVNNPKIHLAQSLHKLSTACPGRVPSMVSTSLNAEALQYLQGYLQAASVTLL
- Type: binding
- experimental_conditions: protein CSE1L; HeLa
property_name: fold changes relative to vehicle control
Answer field: number only, no words.

NCCCNc1ccc(C(=O)NC(CCC(=O)O)C(=O)O)cc1 (stereo not drawn) : 1.04
Nc1nc2cccc(-c3ccccc3)c2n1Cc1ccc(Cl)c(Cl)c1 : 1.06

Prompt: Form field: reported fold changes relative to vehicle control of Nc1nc2c(c(=O)[nH]1)N(C=O)C(CNc1ccc(C(=O)N[C@@H](CCC(=O)O)C(=O)O)cc1)CN2 (stereo partly drawn)
Completion: 0.94

Prompt: Form field: reported fold changes relative to vehicle control of CCCCCCOc1cccc(Cc2cnc(N)nc2N)c1
Completion: 1.52

Prompt: Form field: reported fold changes relative to vehicle control of CCCCCCOc1ccc(Cc2cnc(N)nc2N)cc1
Completion: 1.02

Prompt: Form field: reported fold changes relative to vehicle control of NCCOCCOCC(=O)Nc1nc2ncc(CNc3ccc(C(=O)NC(CCC(=O)O)C(=O)O)cc3)nc2c(=O)[nH]1 (stereo not drawn)
Completion: 1.09

###

- test_system: HeLa cell extract proteins (Homo sapiens, UniProt Q04837)
- Construct: endogenous in cells; host or cells: HeLa cell extract
- Sequence (Q04837 17-148): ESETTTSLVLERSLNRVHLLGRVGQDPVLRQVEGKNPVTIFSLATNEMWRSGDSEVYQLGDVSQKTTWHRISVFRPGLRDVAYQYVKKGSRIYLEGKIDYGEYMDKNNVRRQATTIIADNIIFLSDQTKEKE
- Assay type: binding
- experimental_conditions: HeLa; protein SSBP1
Recorded fold changes relative to vehicle control by entry

Prompt: Notebook entry, HeLa cell extract proteins (Homo sapiens, UniProt Q04837) assay: fold changes relative to vehicle control of CCCCCCOc1ccc(Cc2cnc(N)nc2N)cc1 [compound 1] = ?
Completion: 1.05

Prompt: Notebook entry, HeLa cell extract proteins (Homo sapiens, UniProt Q04837) assay: fold changes relative to vehicle control of CCCCCCOc1cccc(Cc2cnc(N)nc2N)c1 [compound 2] = ?
Completion: 0.95

Prompt: Notebook entry, HeLa cell extract proteins (Homo sapiens, UniProt Q04837) assay: fold changes relative to vehicle control of NCCOCCOCC(=O)Nc1nc2ncc(CNc3ccc(C(=O)NC(CCC(=O)O)C(=O)O)cc3)nc2c(=O)[nH]1 (stereo not drawn) [compound 6] = ?
Completion: 0.96

Prompt: Notebook entry, HeLa cell extract proteins (Homo sapiens, UniProt Q04837) assay: fold changes relative to vehicle control of Nc1nc2cccc(-c3ccccc3)c2n1Cc1ccc(Cl)c(Cl)c1 [compound 3] = ?
Completion: 1

Prompt: Notebook entry, HeLa cell extract proteins (Homo sapiens, UniProt Q04837) assay: fold changes relative to vehicle control of Nc1nc2c(c(=O)[nH]1)N(C=O)C(CNc1ccc(C(=O)N[C@@H](CCC(=O)O)C(=O)O)cc1)CN2 (stereo partly drawn) [LEU, leucovorin] = ?
Completion: 1.07

Prompt: Notebook entry, HeLa cell extract proteins (Homo sapiens, UniProt Q04837) assay: fold changes relative to vehicle control of NCCCNc1ccc(C(=O)NC(CCC(=O)O)C(=O)O)cc1 (stereo not drawn) [compound 7] = ?
Completion: 0.95
